B1: Zinc finger homeobox protein 3, residues 2643 to 2698; numbered along this chain, Q15911 (parent)
chain: RLRTTITPEQLEILYQKYLLDSNPTRKMLDHIAHEVGLKKRVVQVWFQNTRARERK

- Variants of: B1
- Procedure Summary: abundance fitness (aPCA) (normalised: wild type 0, dead -1); higher = more abundant; growth selection in yeast, the domain comes from the species named
- Condition Notes: Homo sapiens
Property: abundance fitness

>  <Residue Change>
Q44V

>  <Measured Result>
-0.179

$$$$
>  <Residue Change>
E35S

>  <Measured Result>
-0.224

$$$$
>  <Residue Change>
P8C

>  <Measured Result>
0.475

$$$$
>  <Residue Change>
T7N

>  <Measured Result>
-0.338

$$$$
>  <Residue Change>
V36L

>  <Measured Result>
-0.145

$$$$
>  <Residue Change>
Q48P

>  <Measured Result>
-0.615

$$$$
>  <Residue Change>
E35Q

>  <Measured Result>
-0.016

$$$$
>  <Residue Change>
Q44L

>  <Measured Result>
-0.347

$$$$
>  <Residue Change>
V43E

>  <Measured Result>
-1.11

$$$$
>  <Residue Change>
V43I

>  <Measured Result>
-0.127

$$$$
>  <Residue Change>
L11W

>  <Measured Result>
-0.11

$$$$
>  <Residue Change>
L14E

>  <Measured Result>
-0.791

$$$$
>  <Residue Change>
R41T

>  <Measured Result>
0.514

$$$$
>  <Residue Change>
L11C

>  <Measured Result>
-0.648

$$$$
>  <Residue Change>
I32M

>  <Measured Result>
-0.466

$$$$
>  <Residue Change>
R55V

>  <Measured Result>
0.282

$$$$
>  <Residue Change>
R51M

>  <Measured Result>
0.098

$$$$
>  <Residue Change>
I13R

>  <Measured Result>
-0.123

$$$$
>  <Residue Change>
D30K

>  <Measured Result>
-0.214

$$$$
>  <Residue Change>
Q48R

>  <Measured Result>
-0.204

$$$$
>  <Residue Change>
I32S

>  <Measured Result>
-0.735

$$$$
>  <Residue Change>
A33T

>  <Measured Result>
-0.43

$$$$
>  <Residue Change>
P24C

>  <Measured Result>
-0.96

$$$$
>  <Residue Change>
A33L

>  <Measured Result>
-0.872

$$$$
>  <Residue Change>
K40W

>  <Measured Result>
0.212

$$$$
>  <Residue Change>
R26F

>  <Measured Result>
0.029

$$$$
>  <Residue Change>
E54W

>  <Measured Result>
-0.512

$$$$
>  <Residue Change>
A33K

>  <Measured Result>
-0.804

$$$$
>  <Residue Change>
T4H

>  <Measured Result>
-0.337

$$$$
>  <Residue Change>
P8L

>  <Measured Result>
0.991

$$$$
>  <Residue Change>
V36E

>  <Measured Result>
-1.11

$$$$

// data source = the Human Domainome abundance scans (Beltran et al. 2025)
